Catalogue of compounds with associated TGI
- System: A549 NSCLC
- assay: NCI tumour cell line growth inhibition, 48 h

The following compounds have reported results that may help.
{"compound": "COc1ccc(C2NN=C3c4ccccc4CCC32)cc1 (centres undefined)", "target or system": "A549 NSCLC", "TGI": "76.6 µM"}
{"compound": "O=c1cc(-c2ccccc2)oc2c1ccc1[nH]c3ccccc3c(=O)c12", "target or system": "A549 NSCLC", "TGI": "> 100 µM"}
{"compound": "O=C(O)Cn1c2c(c3c1-c1ccccc1C3=O)C(=O)CCC2", "target or system": "A549 NSCLC", "TGI": "> 100 µM"}
{"compound": "CCCCCCC(=O)C/C(CCC(=O)N(Cc1ccccc1)Cc1ccccc1)=N\\NC(N)=O", "target or system": "A549 NSCLC", "TGI": "> 100 µM"}

// field: TGI; key: COc1cccc(C(C#N)NNC(=O)c2c(Cl)c(Cl)c(Cl)c(Cl)c2-c2nc3ccc(C(=O)c4ccccc4)cc3[nH]2)c1O (centres undefined) ; value = > 100 µM

// field: TGI; key: `CCOC(=O)CCc1cn2cc(Br)nc(OC)c2n1` ; value = > 100 µM

---

Catalogue of compounds with associated TGI
- Test system: CAKI-1 renal
- assay: NCI tumour cell line growth inhibition, 48 h

The following compounds have reported results that may help.
{"compound": "O=C1C(Cl)=C(Cl)C(=O)N1c1ccc(Cl)c(Cl)c1Cl", "recorded value": "56.2 µM"}
{"compound": "NC1CCCCC1NCCNC1CCCCC1N (stereo not drawn)", "recorded value": "> 100 µM"}

// field: TGI; key: `O=C(O)CSC1=NNC2(C(=O)N1)c1ccccc1-c1ccccc12` ; value = > 10 µM

---

Catalogue of compounds with associated TGI
- Tested on: SF-295 CNS
- assay: NCI tumour cell line growth inhibition, 48 h

The following compounds have reported results that may help.
{"compound": "O=c1[nH]n(CCc2ccccc2CCl)c2ccc([N+](=O)[O-])cc12", "target or system": "SF-295 CNS", "TGI": "> 100 µM"}
{"compound": "O=c1[nH]c2ccccc2c(O)c1/C=N/C(=S)NC1CCCCC1", "target or system": "SF-295 CNS", "TGI": "> 100 µM"}

With those in mind, consider the next compound.
Here CC(=O)OCC1OC(SC2=NC(=O)CS2)C(OC(C)=O)C(OC(C)=O)C1OC(C)=O (stereo not drawn) was tested on SF-295 CNS, and its TGI came to > 100 µM

---

- Test system: COLO 205 colon
Catalogue of compounds with associated GI50

The following compounds have reported results that may help.
{"compound": "C=CC1C(CC2OC(CO)C(O)C(O)C2O)OC=C2C(=O)OCCC21O (stereo unspecified)", "GI50": "19.9 µM"}
{"compound": "Cc1cc(=O)[nH]c(N/N=C/c2ccccc2O)n1", "GI50": "3.81 µM"}
{"compound": "CC12CCC(=O)C(O1)C1C(=O)c3ccc4c(ccc5ccccc54)c3C(=O)C12 (stereo unspecified)", "GI50": "2.13 µM"}

Here `O=C1C(N2CCN(CCOCCO)CC2)=C(Cl)C(=O)c2ncccc21` was tested on COLO 205 colon, and its GI50 came to 19.3 µM

Here `COC1=C(OC)C(=O)C(C/C=C(\C)CC/C=C(\C)CC/C=C(\C)CC/C=C(\C)CC/C=C(\C)CC/C=C(\C)CC/C=C(\C)CC/C=C(\C)CC/C=C(\C)CCC=C(C)C)=C(C)C1=O` was tested on COLO 205 colon, and its GI50 came to > 100 µM

Here `OCCCCC#Cc1ccccc1C#Cc1cccnc1` was tested on COLO 205 colon, and its GI50 came to 28.4 µM

---

- Tested on: SK-MEL-5 melanoma
- assay: NCI tumour cell line growth inhibition, 48 h
endpoint name: TGI

{"molecule": "O=C1C=CC(=O)c2c1ccc1c3ccccc3n(Cc3ccccc3)c21", "TGI": "> 90 µM"}
{"molecule": "Clc1ccc(-c2nn3c(COc4cccc(OCc5nnc6sc(-c7ccc(Cl)cc7)nn56)c4)nnc3s2)cc1", "TGI": "50.7 µM"}
{"molecule": "COc1cc2nc(N3CCC[C@H](NC4=CC(=O)c5ccccc5C4=O)C3)nc(N)c2cc1OC", "TGI": "3.26 µM"}
{"molecule": "O=C1C(Cl)=C(Cl)C(=O)N1c1ccc(Cl)c(Cl)c1Cl", "TGI": "> 100 µM"}
{"molecule": "NC1CCCCC1NCCNC1CCCCC1N (stereo not given)", "TGI": "> 100 µM"}

With those in mind, consider the next molecule.
// field: TGI; key: CC(=O)OCC1OC(n2c(=O)[nH]c(=O)c3n[nH]nc32)C(OC(C)=O)C(OC(C)=O)C1OC(C)=O (stereo not given) ; value = > 100 µM

---

- System: U251 CNS
- assay: NCI tumour cell line growth inhibition, 48 h
endpoint name: TGI

The following compounds have reported results that may help.
{"compound": "O=c1cc(-c2ccccc2)[nH]c2c1CCCC2", "TGI": "> 100 µM"}
{"compound": "Cc1cc2c(c(C(=O)NCC(=O)O)c1)Oc1c(cc(C)cc1C(=O)NCC(=O)O)S2", "TGI": "> 100 µM"}
{"compound": "OCCCCC#Cc1ccccc1C#Cc1cccnc1", "TGI": "78.6 µM"}

// field: TGI; key: O=C1CC(c2ccsc2)n2cccc21 (stereo not drawn) ; value = > 100 µM

// field: TGI; key: CC(C)N(C(=O)C12C3C4C5(C(=O)O)C(C1C35I)C42C(=O)O)C(C)C (stereo not drawn) ; value = > 100 µM

// field: TGI; key: `COc1ccc(/C=C2\CCCc3ccccc3C2=O)cc1` ; value = 35.1 µM

// field: TGI; key: COC(=O)/C(C#N)=C1\CCC(OC)N1C (stereo not drawn) ; value = > 100 µM

// field: TGI; key: `O=C1C(N2CCN(CCOCCO)CC2)=C(Cl)C(=O)c2ncccc21` ; value = 35.9 µM

// field: TGI; key: O=C1c2ccccc2C2(c3ccc(F)cc3)NCCN12 (stereo not drawn) ; value = > 100 µM

// field: TGI; key: `N/N=C(/N)SCCCCCCCCCCS/C(N)=N/N` ; value = 51.4 µM

// field: TGI; key: `C=C(C)[C@@H]1CCc2c(O)c(O)c(=O)cc(C)c2C1` ; value = > 100 µM

---

- System: SK-MEL-28 melanoma
- assay: NCI tumour cell line growth inhibition, 48 h
endpoint name: TGI

{"molecule": "Oc1ccc2ccccc2c1OCc1nnc(CCCCCCCCc2nnc(COc3c(O)ccc4ccccc34)n2Nc2ccccc2)n1Nc1ccccc1", "endpoint name": "TGI", "recorded value": "> 87.7 µM"}
{"molecule": "COc1cc(S(=O)(=O)Nc2ccc(-c3csc(N4C(=O)C(Cl)C4c4ccccc4O)n3)cc2)ccc1Cl (stereo not given)", "endpoint name": "TGI", "recorded value": "> 100 µM"}
{"molecule": "O=c1cc[nH]cc1-c1c[nH]ccc1=O", "endpoint name": "TGI", "recorded value": "> 100 µM"}
{"molecule": "O=Nc1c(-c2c(O)[nH]c3ccc(I)cc23)[nH]c2ccccc12", "endpoint name": "TGI", "recorded value": "> 100 µM"}

With those in mind, consider the next molecule.
// field: TGI; key: `Brc1cc(C2OCCCO2)ccc1OCc1ccccc1` ; value = > 100 µM

---

- Tested on: U251 CNS
- assay: NCI tumour cell line growth inhibition, 48 h
Catalogue of molecules with associated TGI

{"molecule": "COc1ccc(-n2c(N)c(C#N)c(C#N)c2-c2ccco2)cc1", "target or system": "U251 CNS", "TGI": "> 100 µM"}
{"molecule": "Nc1c(C(=O)c2cccc(C(O)CO)c2)cnn1-c1ccc(F)cc1 (stereo not drawn)", "target or system": "U251 CNS", "TGI": "> 25 µM"}
{"molecule": "Oc1c(Cl)cc2cc1-c1cc(cc(Cl)c1O)CCc1c(cc(Cl)c(O)c1Cl)-c1cc(Cl)c(c(Cl)c1O)/C=C\\2", "target or system": "U251 CNS", "TGI": "45.6 µM"}
{"molecule": "Cc1nn(C)c2ncnc(N/N=C/c3cccc(O)c3O)c12", "target or system": "U251 CNS", "TGI": "> 100 µM"}
{"molecule": "CSc1nnc(SCc2nn3c(=O)cc(C)nc3s2)s1", "target or system": "U251 CNS", "TGI": "> 100 µM"}

// field: TGI; key: Cc1cn(C2CC(COCc3ccccc3)N(CCO[Si](C)(C)C(C)(C)C)O2)c(=O)[nH]c1=O (stereo not drawn) ; value = 62.5 µM

// field: TGI; key: `COc1ccc(NC(=O)CC(=O)N/N=C(\C)c2cc3ccccc3oc2=O)cc1` ; value = > 100 µM

// field: TGI; key: `CCCCNS(=O)(=O)c1ccc(-c2ccc3c(c2)-c2ccc(S(=O)(=O)NCCCC)cc2S3(=O)=O)cc1` ; value = 55.5 µM

// field: TGI; key: O=[N+]([O-])c1ccc(N2N=C(c3c(O)ccc4ccccc34)CC2c2ccc(Cl)cc2)c([N+](=O)[O-])c1 (stereo not drawn) ; value = > 100 µM

// field: TGI; key: `Cc1nc2ccc(Cl)cc2c2c1CCO2` ; value = > 100 µM

src = PubChem BioAssay (NCI)
